Values from ChEMBL document CHEMBL1125482

AUC by entry:
Species on record: Canis familiaris
Settings: dog, in vivo, iv

>  <Smiles>
CCn1cc(C(=O)NCC2=C(C(=O)O)N3C(=O)[C@@H](NC(=O)/C(=N\OC(C)(C)C(=O)O)c4csc(N)n4)[C@H]3SC2)c(=O)c2cc(O)c(O)cc21

>  <AUC / mg/h/L>
238.5

$$$$
>  <Smiles>
CC(C)(O/N=C(\C(=O)N[C@@H]1C(=O)N2C(C(=O)O)=C(CNC(=O)c3ccc(O)c(O)c3Cl)CS[C@H]12)c1csc(N)n1)C(=O)O

>  <AUC / mg/h/L>
131

$$$$
>  <Smiles>
CC(C)(O/N=C(\C(=O)N[C@@H]1C(=O)N2C(C(=O)O)=C(CNC(=O)c3cc(O)c(O)c(C#N)c3)CS[C@H]12)c1csc(N)n1)C(=O)O

>  <AUC / mg/h/L>
394.5

$$$$
>  <Smiles>
CC(C)(O/N=C(\C(=O)N[C@@H]1C(=O)N2C(C(=O)O)=C(CNC(=O)c3cc(Cl)c(O)c(O)c3Cl)CS[C@H]12)c1csc(N)n1)C(=O)O

>  <AUC / mg/h/L>
461

$$$$
>  <Smiles>
CCn1cc(C(=O)NCC2=C(C(=O)O)N3C(=O)[C@@H](NC(=O)/C(=N\OC(C)(C)C(=O)O)c4csc(N)n4)[C@H]3SC2)c(=O)c2cc(O)c(O)nc21

>  <AUC / mg/h/L>
137.3

$$$$
>  <Smiles>
CC(C)(O/N=C(\C(=O)N[C@@H]1C(=O)N2C(C(=O)O)=C(CNC(=O)c3cc4ccc(O)c(O)c4oc3=O)CS[C@H]12)c1csc(N)n1)C(=O)O

>  <AUC / mg/h/L>
243.9

$$$$
>  <Smiles>
CC(C)(O/N=C(\C(=O)N[C@@H]1C(=O)N2C(C(=O)[O-])=C(C[n+]3ccccc3)CS[C@H]12)c1csc(N)n1)C(=O)O

>  <AUC / mg/h/L>
14

$$$$
>  <Smiles>
CC(C)(O/N=C(\C(=O)N[C@@H]1C(=O)N2C(C(=O)O)=C(COC(=O)c3cc(O)c(O)c(Br)c3)CS[C@H]12)c1csc(N)n1)C(=O)O

>  <AUC / mg/h/L>
67.7

$$$$
>  <Smiles>
CC(C)(O/N=C(\C(=O)N[C@@H]1C(=O)N2C(C(=O)O)=C(CNC(=O)c3cc(O)c(O)c(F)c3)CS[C@H]12)c1csc(N)n1)C(=O)O

>  <AUC / mg/h/L>
116.8

$$$$
>  <Smiles>
CC(C)(O/N=C(\C(=O)N[C@@H]1C(=O)N2C(C(=O)O)=C(CNCc3cc(O)c(O)c(Br)c3)CS[C@H]12)c1csc(N)n1)C(=O)O

>  <AUC / mg/h/L>
4.4

$$$$
>  <Smiles>
CCN(CC1=C(C(=O)O)N2C(=O)[C@@H](NC(=O)/C(=N\OC(C)(C)C(=O)O)c3csc(N)n3)[C@H]2SC1)C(=O)c1cc(O)c(O)c(C#N)c1

>  <AUC / mg/h/L>
41

$$$$
>  <Smiles>
CC(C)(O/N=C(\C(=O)N[C@@H]1C(=O)N2C(C(=O)O)=C(CNC(=O)Cc3cc(O)c(O)cc3Br)CS[C@H]12)c1csc(N)n1)C(=O)O

>  <AUC / mg/h/L>
1.6

$$$$

* * *

Tested on: Staphylococcus aureus
Test: microbe, parasite or virus in culture
Description: Compound was tested for antimicrobial activity against Staphylococcus aureus penicillin sensitive Staphylococcus aureus (147N) strain

>  <Smiles>
CC(C)(O/N=C(\C(=O)N[C@@H]1C(=O)N2C(C(=O)O)=C(CNC(=O)c3ccc(O)c(O)c3)CS[C@H]12)c1csc(N)n1)C(=O)O

>  <MIC>
16 µg/mL

$$$$
>  <Smiles>
CCO/N=C(\C(=O)N[C@@H]1C(=O)N2C(C(=O)O)=C(CNC(=O)c3ccc(O)c(O)c3)CS[C@H]12)c1csc(N)n1

>  <MIC>
4 µg/mL

$$$$
>  <Smiles>
CC(C)(O/N=C(\C(=O)N[C@@H]1C(=O)N2C(C(=O)[O-])=C(C[n+]3ccccc3)CS[C@H]12)c1csc(N)n1)C(=O)O

>  <MIC>
8 µg/mL

$$$$

* * *

half-life by entry:
Assay: in vivo
Conditions: callithrix, serum, iv
Description: Serum T1/2 in marmosets (IV dose)
Endpoint name: half-life (h)

>  <Smiles>
CC(C)(O/N=C(\C(=O)N[C@@H]1C(=O)N2C(C(=O)O)=C(CNC(=O)c3cc4ccc(O)c(O)c4oc3=O)CS[C@H]12)c1csc(N)n1)C(=O)O

>  <Endpoint value>
3.95

$$$$
>  <Smiles>
CCN(CC1=C(C(=O)O)N2C(=O)[C@@H](NC(=O)/C(=N\OC(C)(C)C(=O)O)c3csc(N)n3)[C@H]2SC1)C(=O)c1cc(O)c(O)c(Cl)c1

>  <Endpoint value>
0.9

$$$$
>  <Smiles>
CCn1cc(C(=O)NCC2=C(C(=O)O)N3C(=O)[C@@H](NC(=O)/C(=N\OC(C)(C)C(=O)O)c4csc(N)n4)[C@H]3SC2)c(=O)c2c(Cl)c(O)c(O)cc21

>  <Endpoint value>
5.7

$$$$

* * *

Assay: in vivo
Conditions: callithrix, serum, iv

>  <Smiles>
CC(C)(O/N=C(\C(=O)N[C@@H]1C(=O)N2C(C(=O)O)=C(CNC(=O)Nc3cc(O)c(O)c(Br)c3)CS[C@H]12)c1csc(N)n1)C(=O)O

>  <Unit>
h

>  <half-life>
2.8

$$$$
>  <Smiles>
CC(C)(O/N=C(\C(=O)N[C@@H]1C(=O)N2C(C(=O)O)=C(CNC(=O)c3ccc(O)c(O)c3Cl)CS[C@H]12)c1csc(N)n1)C(=O)O

>  <Unit>
h

>  <half-life>
2.9

$$$$
>  <Smiles>
CCO/N=C(\C(=O)N[C@@H]1C(=O)N2C(C(=O)O)=C(CNC(=O)c3ccc(O)c(O)c3)CS[C@H]12)c1csc(N)n1

>  <Unit>
h

>  <half-life>
0.8

$$$$

* * *

Test: in vivo
Settings: callithrix, serum, iv
Endpoint name: half-life (h)

>  <Smiles>
CCn1cc(C(=O)NCC2=C(C(=O)O)N3C(=O)[C@@H](NC(=O)/C(=N\OC(C)(C)C(=O)O)c4csc(N)n4)[C@H]3SC2)c(=O)c2cc(O)c(O)cc21

>  <Endpoint value>
3.5

$$$$
>  <Smiles>
CCO/N=C(\C(=O)N[C@@H]1C(=O)N2C(C(=O)O)=C(CNC(=O)c3cc(O)c(O)c(C#N)c3)CS[C@H]12)c1csc(N)n1

>  <Endpoint value>
1.2

$$$$
>  <Smiles>
CC(C)(O/N=C(\C(=O)N[C@@H]1C(=O)N2C(C(=O)O)=C(CNC(=O)c3ccc(O)c(O)c3)CS[C@H]12)c1csc(N)n1)C(=O)O

>  <Endpoint value>
1.25

$$$$
>  <Smiles>
CCN(CC1=C(C(=O)O)N2C(=O)[C@@H](NC(=O)/C(=N\OC(C)(C)C(=O)O)c3csc(N)n3)[C@H]2SC1)C(=O)c1cc(O)c(O)cc1F

>  <Endpoint value>
0.6

$$$$
>  <Smiles>
CCn1cc(C(=O)NCC2=C(C(=O)O)N3C(=O)[C@@H](NC(=O)/C(=N\OC(C)(C)C(=O)O)c4csc(N)n4)[C@H]3SC2)c(=O)c2cc(O)c(O)nc21

>  <Endpoint value>
2.8

$$$$
>  <Smiles>
CC(C)(O/N=C(\C(=O)N[C@@H]1C(=O)N2C(C(=O)O)=C(CNC(=O)/C=C/c3cc(O)c(O)cc3Br)CS[C@H]12)c1csc(N)n1)C(=O)O

>  <Endpoint value>
1

$$$$

* * *

Assay: in vivo
Settings: callithrix, serum, iv
half-life by entry:

>  <Smiles>
CC(C)(O/N=C(\C(=O)N[C@@H]1C(=O)N2C(C(=O)O)=C(CNC(=O)c3cc(O)c(O)c(O)c3)CS[C@H]12)c1csc(N)n1)C(=O)O

>  <half-life>
0.9 h

$$$$
>  <Smiles>
CC(C)(O/N=C(\C(=O)N[C@@H]1C(=O)N2C(C(=O)O)=C(CNC(=O)c3cc(O)c(O)c(Br)c3)CS[C@H]12)c1csc(N)n1)C(=O)O

>  <half-life>
2.9 h

$$$$
>  <Smiles>
CC(C)(O/N=C(\C(=O)N[C@@H]1C(=O)N2C(C(=O)O)=C(/C=C/c3cc(O)c(O)c(Br)c3)CS[C@H]12)c1csc(N)n1)C(=O)O

>  <half-life>
1.5 h

$$$$
>  <Smiles>
CCN(CC1=C(C(=O)O)N2C(=O)[C@@H](NC(=O)/C(=N\OC(C)(C)C(=O)O)c3csc(N)n3)[C@H]2SC1)C(=O)c1cc(O)c(O)c([N+](=O)[O-])c1

>  <half-life>
1.6 h

$$$$

* * *

AUC by entry:
Organism: Canis familiaris
Details: dog, in vivo, iv

>  <Molecule>
CO/N=C(\C(=O)N[C@@H]1C(=O)N2C(C(=O)O)=C(COC(C)=O)CS[C@H]12)c1csc(N)n1 [CEFOTAXIME]

>  <AUC>
46.7 mg/h/L

$$$$
>  <Molecule>
CCO/N=C(\C(=O)N[C@@H]1C(=O)N2C(C(=O)O)=C(CNC(=O)c3cc(O)c(O)c(C#N)c3)CS[C@H]12)c1csc(N)n1

>  <AUC>
107 mg/h/L

$$$$
>  <Molecule>
CCO/N=C(\C(=O)N[C@@H]1C(=O)N2C(C(=O)O)=C(CNC(=O)c3cc(O)c(O)c(Cl)c3)CS[C@H]12)c1csc(N)n1

>  <AUC>
57.6 mg/h/L

$$$$
>  <Molecule>
CCO/N=C(\C(=O)N[C@@H]1C(=O)N2C(C(=O)O)=C(CNC(=O)c3cc(O)c(O)cc3Br)CS[C@H]12)c1csc(N)n1

>  <AUC>
2 mg/h/L

$$$$
>  <Molecule>
CC(C)(O/N=C(\C(=O)N[C@@H]1C(=O)N2C(C(=O)O)=C(CNC(=O)c3cc(O)c(O)c([N+](=O)[O-])c3)CS[C@H]12)c1csc(N)n1)C(=O)O

>  <AUC>
181.7 mg/h/L

$$$$
>  <Molecule>
CCO/N=C(\C(=O)N[C@@H]1C(=O)N2C(C(=O)O)=C(CNC(=O)c3cc(Cl)c(O)c(O)c3Cl)CS[C@H]12)c1csc(N)n1

>  <AUC>
54.5 mg/h/L

$$$$
>  <Molecule>
CCn1cc(C(=O)NCC2=C(C(=O)O)N3C(=O)[C@@H](NC(=O)/C(=N\OC(C)(C)C(=O)O)c4csc(N)n4)[C@H]3SC2)c(=O)c2c(Cl)c(O)c(O)cc21

>  <AUC>
645.7 mg/h/L

$$$$
>  <Molecule>
CC(C)(O/N=C(\C(=O)N[C@@H]1C(=O)N2C(C(=O)O)=C(CNC(=O)c3ccc(O)c(O)c3)CS[C@H]12)c1csc(N)n1)C(=O)O

>  <AUC>
27.2 mg/h/L

$$$$
>  <Molecule>
CCn1nc(C(=O)NCC2=C(C(=O)O)N3C(=O)[C@@H](NC(=O)/C(=N\OC(C)(C)C(=O)O)c4csc(N)n4)[C@H]3SC2)c(=O)c2cc(O)c(O)cc21

>  <AUC>
129.8 mg/h/L

$$$$
>  <Molecule>
CC(C)(O/N=C(\C(=O)N[C@@H]1C(=O)N2C(C(=O)O)=C(CNC(=O)c3cc(O)c(O)c(Cl)c3)CS[C@H]12)c1csc(N)n1)C(=O)O

>  <AUC>
638.3 mg/h/L

$$$$
>  <Molecule>
CCN(CC1=C(C(=O)O)N2C(=O)[C@@H](NC(=O)/C(=N\OC(C)(C)C(=O)O)c3csc(N)n3)[C@H]2SC1)C(=O)c1cc(O)c(O)c(Cl)c1

>  <AUC>
16.4 mg/h/L

$$$$
>  <Molecule>
CCO/N=C(\C(=O)N[C@@H]1C(=O)N2C(C(=O)O)=C(CNC(=O)c3cc(O)c(O)c(F)c3)CS[C@H]12)c1csc(N)n1

>  <AUC>
25 mg/h/L

$$$$
>  <Molecule>
CCN(CC1=C(C(=O)O)N2C(=O)[C@@H](NC(=O)/C(=N\OC(C)(C)C(=O)O)c3csc(N)n3)[C@H]2SC1)C(=O)c1cc(O)c(O)c(Br)c1

>  <AUC>
21.8 mg/h/L

$$$$
>  <Molecule>
CCN(CC1=C(C(=O)O)N2C(=O)[C@@H](NC(=O)/C(=N\OC(C)(C)C(=O)O)c3csc(N)n3)[C@H]2SC1)C(=O)c1cc(O)c(O)c([N+](=O)[O-])c1

>  <AUC>
49.2 mg/h/L

$$$$
>  <Molecule>
CCO/N=C(\C(=O)N[C@@H]1C(=O)N2C(C(=O)O)=C(CNC(=O)c3ccc(O)c(O)c3)CS[C@H]12)c1csc(N)n1

>  <AUC>
4.3 mg/h/L

$$$$
>  <Molecule>
CCN(CC1=C(C(=O)O)N2C(=O)[C@@H](NC(=O)/C(=N\OC(C)(C)C(=O)O)c3csc(N)n3)[C@H]2SC1)C(=O)c1cc(O)c(O)cc1F

>  <AUC>
7.6 mg/h/L

$$$$
>  <Molecule>
CCOC(=O)c1nc2cc(O)c(O)cc2nc1C(=O)NCC1=C(C(=O)O)N2C(=O)[C@@H](NC(=O)/C(=N\OC(C)(C)C(=O)O)c3csc(N)n3)[C@H]2SC1

>  <AUC>
287 mg/h/L

$$$$
>  <Molecule>
CC(C)(O/N=C(\C(=O)N[C@@H]1C(=O)N2C(C(=O)O)=C(/C=C/c3cc(O)c(O)c(Br)c3)CS[C@H]12)c1csc(N)n1)C(=O)O

>  <AUC>
61.6 mg/h/L

$$$$
